- Tested on: PPC-1 cells
- test-method-notes: T7 phage binding to PPC-1 (PPC1) cells at 4° C., quantified by titration/plaque assay
- Type: cell-based, human
- condition-info: 4° C.
endpoint-name: Phage binding to PPC-1 cells (in words)

ATWLPPR [A7R phage, reference compound] :: bound
